biological target: Amine oxidase [flavin-containing] A (Homo sapiens, UniProt P21397); test: Inhibition of human recombinant microsomal MAO-A expressed in baculovirus infected BTI-TN-5B1-4 cells assessed as reduction in production of H202 using p-tyramine as substrate incubated for 30 mins followed by substrate addition by horse radish peroxidase/Amplex red reagent based fluorescence assay; type: cell-based; conditions: read-out: IC50
Sequence (P21397 whole entry): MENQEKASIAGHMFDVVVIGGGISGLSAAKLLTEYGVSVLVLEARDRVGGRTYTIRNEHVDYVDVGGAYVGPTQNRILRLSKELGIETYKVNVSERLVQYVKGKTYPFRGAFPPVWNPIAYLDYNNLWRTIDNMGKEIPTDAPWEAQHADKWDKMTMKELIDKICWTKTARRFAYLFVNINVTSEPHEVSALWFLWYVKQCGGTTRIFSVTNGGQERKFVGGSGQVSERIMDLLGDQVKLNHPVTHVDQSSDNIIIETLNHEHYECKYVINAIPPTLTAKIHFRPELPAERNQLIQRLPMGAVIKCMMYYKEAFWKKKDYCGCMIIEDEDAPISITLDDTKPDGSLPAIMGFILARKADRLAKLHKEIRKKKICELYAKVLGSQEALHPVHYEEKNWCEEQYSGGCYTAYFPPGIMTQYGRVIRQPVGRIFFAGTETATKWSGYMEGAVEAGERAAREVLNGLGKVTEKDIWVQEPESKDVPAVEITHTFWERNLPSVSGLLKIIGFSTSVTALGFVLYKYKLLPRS
pIC50: recorded values
# log scale: pIC50 equals minus log10 of the concentration in mol/L

{"Smiles text": "C#CCOc1ccc(-c2cc(-c3cccc(OCC#C)c3)nc(-c3ccccc3)n2)cc1", "pIC50": 4.59}

### Prompt What value of pIC50 has been reported for the following compound? C#CCOc1ccc(-c2cc(-c3ccc(OCC#C)cc3)nc(C)n2)cc1
### Response 4.47

### Prompt For C#CCOc1ccc(-c2cc(-c3cccc(OCC#C)c3)nc(C)n2)cc1 , what is its reported pIC50?
### Response 4.67

### Prompt Please look up its pIC50: C#CCOc1ccc(-c2cc(-c3cccc(OCC#C)c3)nc(N)n2)cc1
### Response 4.62
